Let's look at some sequences and their measured soluble fraction (log2).
- experiment-summary: soluble fraction after stress (log2 fold change); higher = more stays soluble; pooled small domains, quantitative proteomics;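 note: 20 min heating vs room temperature control held 20 min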
- particulars: stress: 75 degC

[
  {
    "construct-sequence": "HMIQTKKVTFTVEPTVNFEKINISGIEFKINSGSSITAIYEKNSHNFDEVLDFLKQKGVKILDIVTED",
    "soluble fraction (log2)": -0.251
  },
  {
    "construct-sequence": "HMIPEILNGYTKWGDDEPFEDHAGPFYMKMMPSTGRHLSAFIPEQRHMNGGGFLHGGMLMSFADYALFVI",
    "soluble fraction (log2)": 0.244
  },
  {
    "construct-sequence": "HMLKKGDQVYIISGKDKGKLGVVSQIVSEERILVDGINLAKKHVKPNPNKNETGGVVEKEMPIHASNVMI",
    "soluble fraction (log2)": 0.243
  },
  {
    "construct-sequence": "HMKTTKDSVFEYIQKELMTNEEYKQGINTNVIAQHFGLQRSNISTILNELVKEDRLEKTNTRPVLYFLPQ",
    "soluble fraction (log2)": -0.208
  },
  {
    "construct-sequence": "HMKNKFYEEFSDYIFKHTGIHYAEANYYQLDARINKLMKFLETSDENDVLKAIQGGAVKDQRVHQMIVDLA",
    "soluble fraction (log2)": -2.16
  }
]

====

- experiment-summary: soluble fraction after stress (log2 fold change); higher = more stays soluble; pooled small domains, quantitative proteomics
- particulars: stress: 75 degC
Class (required): determined from soluble fraction (log2); valid ranges are lower bin = under -0.5, middle bin = from -0.5 up to 0.05, upper bin = 0.05 and over

[
  {
    "construct-sequence": "HMSDHKNANFTKVVKVAQELLQDEDDKAGITPTLIEEKISAVLAMNRRWAEGLDRAAVADELIRRFSIW",
    "label": "lower bin"
  },
  {
    "construct-sequence": "HMPAEGWEASGDTWRYRQKDGSYITNAWVQDTDGKWYYFDESSLMVRNQTTSDGYYVGEDGVWTET",
    "label": "middle bin"
  },
  {
    "construct-sequence": "HMGGLLSVIQKKAINNVKDRYSENAIKSMTKVQLHDLIKAETSRLLDPANAKETPEYQAFLEE",
    "label": "middle bin"
  },
  {
    "construct-sequence": "HMSEEVKSQPISILDLSTRASNGLKNEGIETIGELVKYSEDELLGLDKFGQNSLKEIKKKLEEIGLTLKEH",
    "label": "middle bin"
  },
  {
    "construct-sequence": "HMKKATYDVMVREALVSFKKKGATLQSIKKKIKADYAIEANATAVKSAIQKGMEAGSIRKSYDLYFFMD",
    "label": "lower bin"
  },
  {
    "construct-sequence": "HMSQDEKITNYIYEGNKNTQTEAFVEAEKSYRKALSLSPEKPEALYNLGNTHFLDKQYDEASQRFF",
    "label": "middle bin"
  },
  {
    "construct-sequence": "HMGGSIDITTAPPGAKIYLDADYYGKTPKRLENISAGTYRLHLLHPEKGEVYRSVTLNEKNGTLKIDENLN",
    "label": "upper bin"
  },
  {
    "construct-sequence": "HMIPEGKWMEDPISEGQIKFIETLIKQAIDSGQDALGAEAKQYLSSGEATKGNASSMIDKLKDAL",
    "label": "upper bin"
  },
  {
    "construct-sequence": "HMDEEGDALDREYEDQIRLGDEAFDAEDWTSAQRAYTAALELRPDERYPKNRLRRLASLQEDV",
    "label": "upper bin"
  },
  {
    "construct-sequence": "HMRDITAQSNASELYFEERDLEAFIEKLERLYPEIRYVNRLMIHSWGQQVVRFFDPDGNLIEVGTP",
    "label": "middle bin"
  },
  {
    "construct-sequence": "HMDVNKDLLGETLEKAKSYKADDWRKASYEALQKAIVEAEAVYKDEEADQVAVDRKVAALNKAINNLEAKG",
    "label": "upper bin"
  },
  {
    "construct-sequence": "HMENQMIIYIDENDENKRLDSYLSEITPDYSRSKIQNFIKNGNVTVNDSNKKPSYLLKENDKISFELPQQ",
    "label": "middle bin"
  },
  {
    "construct-sequence": "HMGPASTGAHQLGLKPGDEVTHRAWGEGVVTSTTGEGDRAEAVVDFDAVGEKRLLLAWAPLER",
    "label": "middle bin"
  },
  {
    "construct-sequence": "HMSGHEVMVQRITAIIAELYQYGFVSRKKMMDEFNISERTLYRDLNRLGDRIVPDGDGIYRLAPAYA",
    "label": "lower bin"
  },
  {
    "construct-sequence": "HMARKISVEALGKYFPNSPMLAAAVAVTGVMKKDEFIHEMRASYKHKFAKKPEVIDGNMKALTMTFEA",
    "label": "upper bin"
  },
  {
    "construct-sequence": "HMLQGKVSFFNDEKGYGFIKDNNSKDSYFVHINKVEGEIAEGDKVTFELEKGPKGLVAANVKR",
    "label": "upper bin"
  },
  {
    "construct-sequence": "HMSVERIEPPLPLIDTLLALRDALERPLSREENAFLSRRFAGGATRAQIDALAAQFRGAAAAESKV",
    "label": "upper bin"
  },
  {
    "construct-sequence": "HMTPYEVLVYESLKQKILSGGYAAGEKIPEQSVSEELGVSRSPLRSAIRRLASEGLIEYYPYRGAFVKA",
    "label": "lower bin"
  },
  {
    "construct-sequence": "HMGQKDYKTRLQEYFAKQGLKVNYEDTSHGPDHNKNFSTDVFLDGKIIGSGIGKSKKSSQQSAAKDALNIL",
    "label": "upper bin"
  },
  {
    "construct-sequence": "HMLDIPEVGQAVQVRGRLGTVFSVAPYDGREGRLHLVTVDYLDDARPPENDEILWEIESGARILG",
    "label": "lower bin"
  },
  {
    "construct-sequence": "HMKQPNSYGSVHKLPGKRRKPWRVRKTSGWLLDEQSGTVKQQYITIGYYATKQEALIALADYNENP",
    "label": "lower bin"
  },
  {
    "construct-sequence": "HMIFTPNGDRVNDVFEIEMGVKLEFQIIILNQQNQTVFKSADPDFKWDGTMLNGEPAPSGTYLYYFSAKD",
    "label": "upper bin"
  },
  {
    "construct-sequence": "HMGPWTETAAKGDAVSKRMLITWLQENADAEFLAAQKLTGQATSVAKRVTKDQLVELYLSVTTAA",
    "label": "lower bin"
  },
  {
    "construct-sequence": "HMVREVSYDQFLHFVEAKQVGMVYQDGESLMFTLKEDVEKEWGVTAYKTGLWPDANLTDRLLDAGVVFS",
    "label": "lower bin"
  },
  {
    "construct-sequence": "HMSTQVPDVKERSQEEARSILESAGFKVTPAVKTEDSADIAKDMVTKTDPAAGQSVPKGTTITIYVSS",
    "label": "upper bin"
  },
  {
    "construct-sequence": "HMDDINVSNSKNIVPNVTGHTGSKAIPVLENLGLDVQYSGFGKVTNQSIPAGTRFKKGETIYLMLE",
    "label": "middle bin"
  },
  {
    "construct-sequence": "HMQSSDQTDNIYENAVSIVLETGKASASHLQRVLGIDYNLAAHLIDKMEDGGLLSPPNYLGHRDVYGYT",
    "label": "upper bin"
  },
  {
    "construct-sequence": "HMPLDYNELRSISPKAARQAILQILAANKGNVSATAKLLGVSRKTVYKAMHKKASGNLDDTSRAPK",
    "label": "lower bin"
  },
  {
    "construct-sequence": "HMDPDDEILINIMTKLLTEKQIIIKNKEIFNFLLKRINRTYEEVYNLINKMDKLSLEKKKQLTIPSIKEL",
    "label": "lower bin"
  }
]
